# System: Staphylococcus epidermidis
# PROTOCOL DETAILS: In vitro minimum inhibitory concentration was determined for antibacterial activity against Staphylococcus epidermis 178 strain.
# Assay type: functional

{"columns": ["MOLECULE", "MIC (µg/mL)"],
 "data": [
  ["Cc1c(N2CCC(N)C2)c(F)c2c(c1N)c(=O)c(C(=O)O)cn2C1CC1 (stereo unspecified)", 16],
  ["O=C(O)c1cn(C2CC2)c2cc(N3CCNCC3)c(F)cc2c1=O", 128],
  ["Cc1c(N2CCC(CN)C2)c(F)c2c(c1N)c(=O)c(C(=O)O)cn2C1CC1 (stereo unspecified)", 16],
  ["Cc1c(N2CCNC(C)C2)c(F)c2c(c1N)c(=O)c(C(=O)O)cn2C1CC1 (stereo unspecified)", 16],
  ["CC1COc2c(N3CCN(C)CC3)c(F)cc3c(=O)c(C(=O)O)cn1c23 (stereo unspecified)", 32],
  ["Cc1c(N2CCNCC2)c(F)c2c(c1N)c(=O)c(C(=O)O)cn2C1CC1", 16]
]}

====

# Tested on: Pseudomonas aeruginosa
# PROTOCOL DETAILS: In vitro minimum inhibitory concentration was determined for antibacterial activity against Pseudomonas aeruginosa 1012E strain.
# Assay type: functional
Reported MIC by item:

{"columns": ["COMPOUND", "TARGET OR TEST SYSTEM", "MIC [µg/mL]"],
 "data": [
  ["Cc1c(N2CCNC(C)C2)c(F)c2c(c1N)c(=O)c(C(=O)O)cn2C1CC1 (stereo not given)", "Pseudomonas aeruginosa", 2],
  ["Cc1c(N2CCNCC2)c(F)c2c(c1N)c(=O)c(C(=O)O)cn2C1CC1", "Pseudomonas aeruginosa", 1],
  ["O=C(O)c1cn(C2CC2)c2cc(N3CCNCC3)c(F)cc2c1=O [CIPROFLOXACIN]", "Pseudomonas aeruginosa", 0.13],
  ["Cc1c(N2CCC(CN)C2)c(F)c2c(c1N)c(=O)c(C(=O)O)cn2C1CC1 (stereo not given)", "Pseudomonas aeruginosa", 1],
  ["Cc1c(N2CCC(N)C2)c(F)c2c(c1N)c(=O)c(C(=O)O)cn2C1CC1 (stereo not given)", "Pseudomonas aeruginosa", 1]
]}

====

# System: Staphylococcus aureus
# PROTOCOL DETAILS: In vitro minimum inhibitory concentration was determined for antibacterial activity against Staphylococcus aureus giorgio strain.
# Assay type: functional

{"columns": ["MOLECULE", "MIC"],
 "data": [
  ["Cc1c(N2CCC(CN)C2)c(F)c2c(c1N)c(=O)c(C(=O)O)cn2C1CC1 (stereo unspecified)", "0.031 µg/mL"],
  ["O=C(O)c1cn(C2CC2)c2cc(N3CCNCC3)c(F)cc2c1=O", "0.25 µg/mL"],
  ["Cc1c(N2CCNCC2)c(F)c2c(c1N)c(=O)c(C(=O)O)cn2C1CC1", "0.25 µg/mL"],
  ["Cc1c(N2CCC(N)C2)c(F)c2c(c1N)c(=O)c(C(=O)O)cn2C1CC1 (stereo unspecified)", "0.25 µg/mL"],
  ["Cc1c(N2CCNC(C)C2)c(F)c2c(c1N)c(=O)c(C(=O)O)cn2C1CC1 (stereo unspecified)", "0.25 µg/mL"],
  ["CC1COc2c(N3CCN(C)CC3)c(F)cc3c(=O)c(C(=O)O)cn1c23 (stereo unspecified)", "0.5 µg/mL"]
]}

====

Reported MIC by item:
# Test system: Staphylococcus aureus
# PROTOCOL DETAILS: In vitro minimum inhibitory concentration was determined for antibacterial activity against Staphylococcus aureus 6538p strain.
# Assay type: functional
ENDPOINT LABEL: MIC (µg/mL)

{"columns": ["COMPOUND", "TARGET OR TEST SYSTEM", "ENDPOINT LABEL", "UNIT", "REPORTED VALUE"],
 "data": [
  ["Cc1c(N2CCC(CN)C2)c(F)c2c(c1N)c(=O)c(C(=O)O)cn2C1CC1 (stereo unspecified)", "Staphylococcus aureus", "MIC", "µg/mL", 0.031],
  ["Cc1c(N2CCC(N)C2)c(F)c2c(c1N)c(=O)c(C(=O)O)cn2C1CC1 (stereo unspecified)", "Staphylococcus aureus", "MIC", "µg/mL", 0.25],
  ["O=C(O)c1cn(C2CC2)c2cc(N3CCNCC3)c(F)cc2c1=O", "Staphylococcus aureus", "MIC", "µg/mL", 0.13],
  ["Cc1c(N2CCNCC2)c(F)c2c(c1N)c(=O)c(C(=O)O)cn2C1CC1", "Staphylococcus aureus", "MIC", "µg/mL", 0.25],
  ["Cc1c(N2CCNC(C)C2)c(F)c2c(c1N)c(=O)c(C(=O)O)cn2C1CC1 (stereo unspecified)", "Staphylococcus aureus", "MIC", "µg/mL", 0.5],
  ["CC1COc2c(N3CCN(C)CC3)c(F)cc3c(=O)c(C(=O)O)cn1c23 (stereo unspecified)", "Staphylococcus aureus", "MIC", "µg/mL", 0.5]
]}

====

Reported MIC by item:
# Tested on: Escherichia coli
# PROTOCOL DETAILS: In vitro minimum inhibitory concentration was determined for antibacterial activity against Escherichia coli TEM9 2639E strain.
# Format: functional

{"columns": ["MOLECULE", "UNIT", "MIC"],
 "data": [
  ["Cc1c(N2CCNC(C)C2)c(F)c2c(c1N)c(=O)c(C(=O)O)cn2C1CC1 (stereo not given)", "µg/mL", 0.063],
  ["Cc1c(N2CCC(N)C2)c(F)c2c(c1N)c(=O)c(C(=O)O)cn2C1CC1 (stereo not given)", "µg/mL", 0.13],
  ["Cc1c(N2CCC(CN)C2)c(F)c2c(c1N)c(=O)c(C(=O)O)cn2C1CC1 (stereo not given)", "µg/mL", 0.13],
  ["CC1COc2c(N3CCN(C)CC3)c(F)cc3c(=O)c(C(=O)O)cn1c23 (stereo not given)", "µg/mL", 0.063],
  ["Cc1c(N2CCNCC2)c(F)c2c(c1N)c(=O)c(C(=O)O)cn2C1CC1", "µg/mL", 0.031]
]}

====

# System: Staphylococcus aureus
# PROTOCOL DETAILS: In vitro minimum inhibitory concentration was determined for antibacterial activity against Staphylococcus aureus 77 strain.
# Type: functional
ENDPOINT LABEL: MIC (µg/mL)

{"columns": ["MOLECULE", "UNIT", "REPORTED VALUE"],
 "data": [
  ["Cc1c(N2CCNCC2)c(F)c2c(c1N)c(=O)c(C(=O)O)cn2C1CC1", "µg/mL", 0.5],
  ["O=C(O)c1cn(C2CC2)c2cc(N3CCNCC3)c(F)cc2c1=O", "µg/mL", 0.25],
  ["CC1COc2c(N3CCN(C)CC3)c(F)cc3c(=O)c(C(=O)O)cn1c23 (stereo unspecified)", "µg/mL", 0.25],
  ["Cc1c(N2CCNC(C)C2)c(F)c2c(c1N)c(=O)c(C(=O)O)cn2C1CC1 (stereo unspecified)", "µg/mL", 0.5],
  ["Cc1c(N2CCC(N)C2)c(F)c2c(c1N)c(=O)c(C(=O)O)cn2C1CC1 (stereo unspecified)", "µg/mL", 0.5],
  ["Cc1c(N2CCC(CN)C2)c(F)c2c(c1N)c(=O)c(C(=O)O)cn2C1CC1 (stereo unspecified)", "µg/mL", 0.063]
]}

====

# Test system: Escherichia coli
# PROTOCOL DETAILS: In vitro minimum inhibitory concentration was determined for antibacterial activity against Escherichia coli 10536 strain
# Assay type: functional
ENDPOINT LABEL: MIC (µg/mL)

{"columns": ["COMPOUND", "COMPARISON SIGN", "REPORTED VALUE"],
 "data": [
  ["O=C(O)c1cn(C2CC2)c2cc(N3CCNCC3)c(F)cc2c1=O [CIPROFLOXACIN]", "≤", 0.008],
  ["Cc1c(N2CCNCC2)c(F)c2c(c1N)c(=O)c(C(=O)O)cn2C1CC1", "≤", 0.008],
  ["CC1COc2c(N3CCN(C)CC3)c(F)cc3c(=O)c(C(=O)O)cn1c23 (stereo unspecified) [OFLOXACIN]", "=", 0.031],
  ["Cc1c(N2CCNC(C)C2)c(F)c2c(c1N)c(=O)c(C(=O)O)cn2C1CC1 (stereo unspecified)", "=", 0.063],
  ["Cc1c(N2CCC(CN)C2)c(F)c2c(c1N)c(=O)c(C(=O)O)cn2C1CC1 (stereo unspecified)", "=", 0.031],
  ["Cc1c(N2CCC(N)C2)c(F)c2c(c1N)c(=O)c(C(=O)O)cn2C1CC1 (stereo unspecified)", "=", 0.031]
]}
